# target.or.test.system: Kv1.2 (Homo sapiens)
# Construct: expressed in transfected cells
# Sequence (P16389 whole entry): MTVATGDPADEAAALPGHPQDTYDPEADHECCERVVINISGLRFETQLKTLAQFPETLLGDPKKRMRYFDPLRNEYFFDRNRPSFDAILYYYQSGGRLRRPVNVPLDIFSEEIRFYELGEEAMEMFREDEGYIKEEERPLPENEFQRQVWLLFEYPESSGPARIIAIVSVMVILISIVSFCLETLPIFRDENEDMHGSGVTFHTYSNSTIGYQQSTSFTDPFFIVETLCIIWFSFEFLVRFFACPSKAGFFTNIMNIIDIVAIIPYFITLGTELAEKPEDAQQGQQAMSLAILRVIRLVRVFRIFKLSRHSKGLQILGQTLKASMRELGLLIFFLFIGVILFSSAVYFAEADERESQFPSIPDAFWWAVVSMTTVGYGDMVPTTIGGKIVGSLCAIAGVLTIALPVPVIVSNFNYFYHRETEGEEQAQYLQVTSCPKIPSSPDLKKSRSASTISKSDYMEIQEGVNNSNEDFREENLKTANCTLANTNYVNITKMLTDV
# test.description: Patch clamp assay (QPatch), Kv1.2
# Assay type: cell-based
# condition.description: QPatch; CHO cells stably expressing human Kv1.2; read-out: Potency IC50, Kv1.2
Label Yes when IC50 is strictly below 400 nM; otherwise label No.

[[record]]
substance = "H-NMDMRC(1)SASVEC(2)KQKC(3)LKAIGSIFGKC(1)MNGKC(2)KC(3)YPR-NH2 [Peptide 37]"
target_or_test_system = "Kv1.2 (Homo sapiens)"
assigned_class = "No"

[[record]]
substance = "H-NMDMRC(1)SASVEC(2)KQKC(3)LKRIGSIFGKC(1)MNKKC(2)KC(3)YPR-NH2 [Peptide 57]"
target_or_test_system = "Kv1.2 (Homo sapiens)"
assigned_class = "Yes"

[[record]]
substance = "H-NMDMRC(1)SISVEC(2)KQKC(3)LKAIGSIFGKC(1)MNKKC(2)KC(3)YPR-NH2 [Peptide 27]"
target_or_test_system = "Kv1.2 (Homo sapiens)"
assigned_class = "Yes"

[[record]]
substance = "H-N[Nle]S[Nle]RC(1)SASVEC(2)KQKC(3)LKAIGSIFGKC(1)[Nle]NKKC(2)KC(3)YPR-NH2 [Peptide 47]"
target_or_test_system = "Kv1.2 (Homo sapiens)"
assigned_class = "Yes"

[[record]]
substance = "H-[Nle]D[Nle]RC(1)SASVEC(2)KQKC(3)LKAIGSIFGKC(1)[Nle]NKKC(2)KC(3)YPR-OH [Peptide 97]"
target_or_test_system = "Kv1.2 (Homo sapiens)"
assigned_class = "No"

[[record]]
substance = "H-NMDMRC(1)SASVEC(2)LQKC(3)LKAIGSIFGKC(1)MNKKC(2)KC(3)YPR-NH2 [Peptide 30]"
target_or_test_system = "Kv1.2 (Homo sapiens)"
assigned_class = "No"

[[record]]
substance = "H-N[Nle]D[Nle]RC(1)SASVEC(2)KQSC(3)LKAIGSIFGKC(1)[Nle]NKKC(2)KC(3)YPR-NH2 [Peptide 49]"
target_or_test_system = "Kv1.2 (Homo sapiens)"
assigned_class = "No"


---

# target.or.test.system: Kv1.2 (Homo sapiens)
# Construct: expressed in transfected cells
# test.description: Patch clamp assay (QPatch), Kv1.2
# Type: cell-based
# condition.description: ratio of IC50 Kv1.2/Kv1.3
MET means recorded Selectivity Kv1.2/Kv1.3 is 2000 or above; NOT MET means it is below 2000.

[[record]]
substance = "Ac-LRC(1)SASVEC(2)KQKC(3)LKAIGSIFGKC(1)[Nle]NKKC(2)KC(3)YPR-NH2 [Peptide 114]"
assigned_class = "NOT MET"

[[record]]
substance = "H-PIE[Nle]RC(1)SASVEC(2)KQKC(3)LKAIGSIFGKC(1)[Nle]NKKC(2)KC(3)YPR-OH [Peptide 99]"
assigned_class = "MET"

[[record]]
substance = "H-S[Nle]D[Nle]RC(1)SASVEC(2)KQKC(3)LKAIGSIFGKC(1)MNKKC(2)KC(3)[F(4-NH2)]PR-NH2 [Peptide 72]"
assigned_class = "NOT MET"

[[record]]
substance = "Ac-C(1)SASVEC(2)KQKC(3)LKAIGSIFGKC(1)[Nle]NKKC(2)KC(3)YPR-NH2 [Peptide 109]"
assigned_class = "NOT MET"

[[record]]
substance = "H-P[Nle]D[Nle]RC(1)SASVEC(2)KQKC(3)LKAIGC(4)IFGKC(1)[Nle]NKKC(2)KC(3)YPC(4)-NH2 [Peptide 85]"
assigned_class = "NOT MET"

[[record]]
substance = "H-MDMRC(1)SASVEC(2)KQKC(3)LKAIGSIFGKC(1)MNKKC(2)KC(3)YPR-OH [Peptide 6]"
assigned_class = "NOT MET"

[[record]]
substance = "H-[Nle]D[Nle]RC(1)SASVEC(2)KQKC(3)LKAIGSIFGKC(1)[Nle]NKKC(2)KC(3)YPR-OH [Peptide 97]"
assigned_class = "MET"

